Across several publications, the following IC50 results were reported for Nitric oxide synthase 1 (Homo sapiens).
quantity.measured: IC50 (µM)

CCC1CN=C(N)C1 (centres undefined) | 5.46
CN(CCO)CCN1CCCc2cc(NC(=N)c3cccs3)ccc21 | 0.133
NC1=NC(CC[N+](=O)[O-])CCCC1 (centres undefined) | 0.339

[A] NNC(=S)NCCC[C@H](N)C(=O)O
[B] N=C1CCCCCCCN1
[C] N#Cc1ccc(C(=O)N2CCC3(CC2)N=C(N)c2c(F)ccc(F)c2N3)cc1
[D] COc1ccnc(CCc2nc3c(C)cc(C)nc3[nH]2)c1
Reorder the items by IC50, least to greatest. Give me the labels in the order the question wants.
C, B, D, A
(C: 3.3 µM, B: 6.8 µM, D: 12.6 µM, A: 1620 µM)

[A] COc1ccnc(NC2CCN(C(=O)c3ccccc3)CC2)c1
[B] CCCCCC1N=C(N)CC1C(F)(F)F (stereo in doubt; 13)
[C] CC1CCN=C1N (centres undefined)
[D] CCCCC[C@@H]1N=C(N)[C@H](O)[C@@H]1C
Your job: order these 4 records by IC50, ascending. Return the labels ranked in the requested order, please.
C, B, A, D
(C: 3 µM, B: 9.05 µM, A: 28 µM, D: 49 µM)

###

A compilation of published IC50 results with Nitric oxide synthase 1 (Homo sapiens, UniProt P29475).
Sequence (P29475 whole entry): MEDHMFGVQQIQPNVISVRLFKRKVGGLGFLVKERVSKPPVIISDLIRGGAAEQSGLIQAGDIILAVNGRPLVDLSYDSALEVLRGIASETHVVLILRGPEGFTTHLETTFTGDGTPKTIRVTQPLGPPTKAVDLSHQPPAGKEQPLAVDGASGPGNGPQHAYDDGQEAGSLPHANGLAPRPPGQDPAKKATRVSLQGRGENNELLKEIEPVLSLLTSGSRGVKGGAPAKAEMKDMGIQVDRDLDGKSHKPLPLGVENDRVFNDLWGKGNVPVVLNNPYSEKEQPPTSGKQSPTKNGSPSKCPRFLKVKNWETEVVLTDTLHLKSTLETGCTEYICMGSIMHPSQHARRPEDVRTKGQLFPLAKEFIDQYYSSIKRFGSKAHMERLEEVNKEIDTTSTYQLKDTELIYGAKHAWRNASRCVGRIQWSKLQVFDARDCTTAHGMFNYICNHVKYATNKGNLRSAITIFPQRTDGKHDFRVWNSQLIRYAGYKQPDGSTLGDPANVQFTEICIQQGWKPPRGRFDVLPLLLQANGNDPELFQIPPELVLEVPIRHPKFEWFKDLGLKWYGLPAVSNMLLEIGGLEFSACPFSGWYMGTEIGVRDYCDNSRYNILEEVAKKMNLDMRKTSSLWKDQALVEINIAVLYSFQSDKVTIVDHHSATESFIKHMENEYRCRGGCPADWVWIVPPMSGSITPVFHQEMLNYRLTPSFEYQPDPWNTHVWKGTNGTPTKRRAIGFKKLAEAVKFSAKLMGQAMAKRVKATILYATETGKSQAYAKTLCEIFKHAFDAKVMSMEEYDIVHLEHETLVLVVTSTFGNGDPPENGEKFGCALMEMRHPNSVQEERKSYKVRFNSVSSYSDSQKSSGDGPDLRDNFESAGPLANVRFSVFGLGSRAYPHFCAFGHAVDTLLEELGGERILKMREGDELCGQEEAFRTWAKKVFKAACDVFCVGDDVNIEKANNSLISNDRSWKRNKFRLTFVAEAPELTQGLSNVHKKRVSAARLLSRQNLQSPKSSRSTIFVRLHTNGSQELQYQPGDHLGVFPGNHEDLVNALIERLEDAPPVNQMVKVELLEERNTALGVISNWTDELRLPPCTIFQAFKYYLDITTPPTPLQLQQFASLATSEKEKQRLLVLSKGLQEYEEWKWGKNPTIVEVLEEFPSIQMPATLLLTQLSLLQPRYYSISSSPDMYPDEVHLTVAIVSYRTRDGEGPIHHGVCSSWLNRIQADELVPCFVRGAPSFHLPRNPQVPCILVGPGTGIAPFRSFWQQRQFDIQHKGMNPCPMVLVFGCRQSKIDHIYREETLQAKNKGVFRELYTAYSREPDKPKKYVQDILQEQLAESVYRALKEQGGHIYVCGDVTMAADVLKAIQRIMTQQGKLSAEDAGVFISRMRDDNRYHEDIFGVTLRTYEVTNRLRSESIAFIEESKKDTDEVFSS
quantity.measured: IC50 (µM)

// below: answered molecules
N=C(Nc1ccc2nc(NC3CCN(Cc4ccc(C(=O)O)cc4)CC3)sc2c1)c1cccs1 | 5.1
CN(Cc1cc(Cl)ccc1C#N)C1CCCNC1 (stereo not drawn) | 0.19
NC1=NCCC(C(F)(F)F)C1 (stereo not drawn) | 3.3

[1] NC1=NC(Cc2ccccc2)CCC1 (stereo not drawn)
[2] CN1CCCC1CCN1CCOc2cc(/N=C(\N)c3cccs3)ccc21 (stereo not drawn)
[3] NC1=NCCCO1
[4] COc1cc(/C=C/C(=O)N[C@H](Cc2ccc(O)cc2)C(=O)O)ccc1O
[5] O=C(/C=C/c1ccccc1Cl)N[C@@H](Cc1ccc(F)cc1)C(=O)O
Your job: order these 5 records by IC50, ascending. Output the labels ranked as instructed.
2, 1, 3, 4, 5
(2: 0.43 µM, 1: 0.9 µM, 3: 3.7 µM, 4: 40.3 µM, 5: 126 µM)

[P] CN(Cc1cc(Cl)ccc1C#N)C1CCNC1 (stereo not drawn)
[Q] CCCC1N=C(N)CC1C (stereo not drawn)
Lab note: check whether P or Q has the lower measured IC50. Answer with the label corresponding to your selection.
P
(P: 1.2 µM, Q: 4.8 µM)

###

Recorded IC50 for compounds tested on Nitric oxide synthase 1 (Homo sapiens), drawn from a number of studies.
quantity.measured: IC50 (nM)

These solved cases illustrate the format of a correct answer.
NC1=NC(C2CCC2)Nc2cccc(F)c21 (stereo not drawn) | 1000
NC1=Nc2c(F)cc(Cl)cc2[C@H]2CCC[C@@H]12 | 730
CC(C)N(Cc1cc(Cl)ccc1C#N)C1CCNCC1 | 190
CCN(Cc1cc(Cl)ccc1C#N)C1CCNCC1 | 360
NCCC1CCCCC(N)=N1 (stereo not drawn) | 932
NC1=Nc2ccccc2CC1 | 28000

[A] N=C(Nc1ccc2sc(NCCN3CCOCC3)nc2c1)c1cccs1
[B] COCCOc1ccnc2[nH]c(CCc3cc(OC)ccn3)nc12
# argmax over IC50 for candidates A and B Write down the label of the entry you select.
B

###

pIC50: −log10 of the molar value.
// compounds with reported pIC50 on Nitric oxide synthase 1 (Homo sapiens), multi-publication
quantity.measured: pIC50

Known pIC50 results, listed for orientation:
NC(=Nc1ccc(CCNCCc2cccc(Cl)c2)cc1)c1cccs1 | 7.46
COc1cc(-c2cccc(N)n2)c(OC)cc1CN(C)C | 6.09
N=C(Nc1ccc2sc(NCCc3ccccn3)nc2c1)c1cccs1 | 5.96
CCCC1CN=C(N)C1 (stereo not drawn) | 4.28
COc1ccnc(CCc2nc3c(C)ccnc3[nH]2)c1 | 4.73

[1] CSC(=N)NCCC[C@H](N)C(=O)N[C@@H](Cc1ccccc1)C(=O)O
[2] NC1=Nc2c(Cl)cc(Cl)cc2[C@H]2CCC[C@@H]12
[3] Cc1cc(N)nc2c1CCCC2
Ranking field: pIC50; order: falling. Provide your answer as the labels ordered per the instruction.
3, 2, 1
(3: 5.62, 2: 5.39, 1: 4.44)

[P] NC1=Nc2ccccc2[C@H]2CCCC[C@@H]12
[Q] COc1ccnc(CCc2nc3cc(-c4ccccc4)cnc3[nH]2)c1
[R] COc1ccnc(CCc2nc3ncccc3[nH]2)c1
Order the records, beginning with the lowest pIC50 and ending with the highest. When ranking, write the labels in the order the request describes.
R, P, Q
(R: 4.86, P: 5.17, Q: 5.92)

###

UniProt:P29475 IC50, compiled from various sources.
quantity.measured: IC50 (µM)

N=C1CCC2CCCN12 (stereo not drawn) | 9.6
CCCCC[C@H]1N=C(N)[C@H](O)[C@H]1C | 8.9
O=c1oc2ccc(Cl)cc2n1CN1CCCCC1 | 4.6
CCCC1CCCCCC(N)=N1 (stereo not drawn) | 0.24
CCCC1CC(N)=NC1CC (stereo not drawn) | 17.3

[1] CCc1cc(-c2cccc(N)n2)c(OC)cc1CCCN(C)C
[2] COC(=O)c1ccc(CN2CCC(Nc3nc4ccc(N=C(N)c5cccs5)cc4s3)CC2)cc1
[3] CC1CC(N)=NC1Cc1ccccc1 (stereo in doubt; 11)
[4] N/C1=N/CCCSCC1
[5] CCSC(=N)Nc1ccc2nc(N)sc2c1
Ascending sort, IC50. List the labels according to the requested ordering.
1, 2, 5, 3, 4
(1: 0.075 µM, 2: 0.3 µM, 5: 1.4 µM, 3: 8.29 µM, 4: 21 µM)

###

pIC50 for Nitric oxide synthase 1 (Homo sapiens), merged from several publications.
pIC50: −log10 of the molar value.
quantity.measured: pIC50

Worked cases, pIC50 given:
CN(Cc1cc(Cl)ccc1C#N)C1CCCNCC1 (configuration not stated) | 5.92
C/C=C/CC1COCCC(N)=N1 (configuration not stated) | 3.97

[a] CC(=N)NCC(F)(F)CC[C@H](N)C(=O)O
[b] NC1=Nc2ccccc2N2CCCC12 (configuration not stated)
[c] COc1ccnc(NC2CCN(C(=O)c3ccc(C#N)nc3)CC2)c1
[d] CC1CN=C(N)C1C (configuration not stated)
[e] CCCCc1cnc2[nH]c(CCc3cc(OC)ccn3)nc2c1
Please list these in order of increasing pIC50. Thank you! Please express your ranking as an ordered list of the labels.
a, c, b, e, d

###

pIC50: −log10 of the molar value.
The molecules below each have a reported pIC50 tested on Nitric oxide synthase 1 (Homo sapiens, UniProt P29475); the values come from various publications.
quantity.measured: pIC50

CN(C)[C@H]1CC[C@H](c2c[nH]c3ccc(NC(=N)c4cccs4)cc32)CC1 | 5.34
CC(=N)NC[C@@H](F)CC[C@H](N)C(=O)O | 4.66
CCc1cc(-c2cccc(N)n2)c(OC)cc1OCCN(C)C | 7.24
NC1=NC(CO)CSCC1 (stereo not drawn) | 5.57
NC1=Nc2cc(F)ccc2[C@H]2CCC[C@@H]12 | 6.89

[a] Cc1ccc2[nH]c(=O)oc2c1
[b] NC1=Nc2ccccc2[C@H]2CCC[C@@H]12
[c] NC1=Nc2ccc(Br)cc2[C@H]2CCC[C@@H]12
[d] O=c1oc2ccc(Cl)cc2n1CN1CCSCC1
Your job: order these 4 records by pIC50, ascending. List the labels, following the order given in the request.
a, d, c, b

[1] CN(Cc1cc(Cl)ccc1C#N)C1CCNCC1
[2] CS/C(=N/N)NCCC[C@H](N)C(=O)O
When their pIC50 values are compared, which is larger, 1 or 2 ? Let me know the label of the one you choose.
1
(1: 6.46, 2: 3.49)

###

pIC50: −log10 of the molar value.
Across several studies, molecules have been characterized by their pIC50 on Nitric oxide synthase 1 (Homo sapiens); a selection follows.
quantity.measured: pIC50

[P] N=C(Nc1ccc2nc(NCCc3ccccn3)sc2c1)c1cccs1
[Q] CC(C)CN(Cc1cc(Cl)ccc1C#N)C1CCCNC1 (centres undefined)
[R] N=C(Nc1ccc2c(c1)CCCN2CCNCCO)c1cccs1
[S] CCN1CCC(N(C)Cc2cc(Cl)ccc2C#N)CC1
Using the list above, order everything by rising pIC50. Returns: the labels listed in the requested order.
Q, P, S, R
(Q: 5.60, P: 5.89, S: 6.43, R: 6.94)

###

Here, molecules appear alongside IC50 reported for Nitric oxide synthase 1 (Homo sapiens) in the literature.
quantity.measured: IC50 (µM)

Sample answers from the record:
COc1ccnc(CCc2nc3ccc(OC)nc3[nH]2)c1 | 26.3
CC1CC(N)=NCCS1 (stereo unspecified) | 1
NC1=NC(Cc2ccccc2)C(C(F)(F)F)C1 (stereo in doubt; 17) | 12.1
CCCC1CCCC(N)=N1 (stereo unspecified) | 0.5
NC1=NCCC1 | 20

[I] CCc1ccnc(N)c1
[II] CC(C)CN(Cc1cc(Cl)ccc1C#N)[C@@H]1CCCNC1
Which is greater in IC50, the first item I or the second item II ? Identify your pick by its label.
I

[1] CCCCC[C@H]1NC(=N)C[C@H]1C (single isomer, unassigned)
[2] CC1CCC(N)=N1 (stereo unspecified)
[3] CCCCCC1N=C(N)CC1C (stereo in doubt; 20)
Write the entries in order, lowest recorded IC50 first. Write out the labels following the order that was asked for.
3, 2, 1
